Kindly supply the reported % Inhibition at ICmax values for the records listed here.
# Tgt: XccFPR (Xanthomonas citri pv. citri, UniProt A0AAI7ZED9)
# Sequence (A0AAI7ZED9 1-259): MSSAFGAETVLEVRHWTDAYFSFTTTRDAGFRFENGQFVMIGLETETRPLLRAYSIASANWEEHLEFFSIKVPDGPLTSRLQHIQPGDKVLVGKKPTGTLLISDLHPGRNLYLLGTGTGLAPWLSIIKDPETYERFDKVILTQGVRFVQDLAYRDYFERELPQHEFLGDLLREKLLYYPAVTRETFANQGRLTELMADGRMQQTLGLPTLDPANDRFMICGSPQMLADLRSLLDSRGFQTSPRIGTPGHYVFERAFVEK
# Procedure Text: NADPH-dependent DCPIP diaphorase activity of XccFPR, dose-response of inhibitors
# Assay type: biochemical, Xanthomonas citri subsp. citri
# Setup Conditions: at ICmax; 25 °C, 2% DMSO, pH 8.0, 20 nM XccFPR, 95 µM DCPIP, 50 μM NADPH

Need % Inhibition at ICmax, item O=C(O/N=C/Nc1ncc(-c2ccc(Br)s2)s1)c1ccc([N+](=O)[O-])cc1
~91%

State the recorded % Inhibition at ICmax for this entry: CC(C)N(C(=O)c1ccc(-c2ccccc2F)cc1)C(C)C
~70%

Which value of % Inhibition at ICmax has been reported for Cc1ccc2oc(=O)n(CCC(=O)NNC(=O)c3nc(-c4cccs4)no3)c2c1 in the records?
~56%

###

# Tgt: UniProt A0AAI7ZED9
# Procedure Text: NADPH-dependent DCPIP diaphorase activity of XccFPR, dose-response of inhibitors
# Format: biochemical, Xanthomonas citri subsp. citri
# Procedure: When assayed in regular cuvettes, the DCPIP diaphorase activity of XccFPR was determined at 25 °C using a Cary 100 (Agilent Technologies Inc., Santa Clara, CA, USA) spectrophotometer as previously established. […] Positive controls (without any hit compound) were included in every reaction set. […] The DMSO concentration was kept at 2% in all samples. […] The effect of the inhibitors on Km and kcat was determined by fitting the datasets to the Michaelis-Menten model. […]
pIC50: −log10 of the molar value.
Readout: pIC50

I have this molecule here, CCOC(=O)CNC(=O)CCc1cc(OC)c(OC)c(OC)c1 , and I need its recorded pIC50.
< 2.72

Give the measured pIC50 of N#CC(C#N)=C1SC=C(c2ccc(Cl)cc2)S1 .
< 3.22

Field request: pIC50 | item: CCCCc1ccc(NC(=O)CSc2nc(C3CCCCC3)c(C#N)c(=O)[nH]2)c(C)c1
< 3.19

Sample O=C(Nc1cccc(Cl)c1)Nc1ccc(F)c(Cl)c1 — what was its pIC50?
< 2.30

The reported measurements were obtained from paper PMC5943930.
